Tested on: NCI-H522 lung
Experiment: NCI tumour cell line growth inhibition, 48 h; in the data active = GI50 below about 0.43 µM; inactive = the rest
Labels: Y for active, N for inactive

CC(=O)Nc1ccc2c(c1)[nH]c(=O)c1cc(NC(C)=O)ccc12 ... N
COc1ccc(C2CC(=O)Nc3c2c(C)nn3-c2nc3ccccc3[nH]2)cc1OC (configuration not stated) ... N
CC(C)Cc1cc(-c2cccn2C)c(C#N)c(=O)[nH]1 ... N
C=C1C(=O)O[C@H]2[C@H]1CC/C(COC(=O)NCCc1ccc(Br)cc1)=C\CC[C@@]1(C)O[C@@H]21 ... N
Cc1cccc(Nc2ncc(-c3ccccc3)o2)c1 ... N
O=[N+]([O-])c1ccc(NC(c2ccccc2)c2ccc3cccnc3c2O)cc1 (configuration not stated) ... Y
Nc1nc(N)c2c(n1)NC(c1ccc(Cl)cc1)C1CCc3ccccc3C1=N2 (configuration not stated) ... N
Cc1ccccc1N=C(c1ccccc1)C1C(=O)c2ccccc2C1=O ... N
COc1ccc(CNCCN2C(=O)c3ccc4c5c(ccc(c35)C2=O)C(=O)N(CCNCc2ccc(OC)c(OC)c2OC)C4=O)c(OC)c1OC ... N
CCCCCCCN(CCCCCCC)C(=N)c1ccc(OC)c2ccccc12 ... N
CCN1C(=O)N(CC)C2C1NN=c1s/c(=C\c3ccc(Br)cc3)c(=O)n12 (configuration not stated) ... Y
O=C(Nc1n[nH]c2cc(-c3ccc(F)cc3)ccc12)C1CC1 ... N

Values were extracted from PubChem BioAssay (NCI).
